# target.system: GST-Nv-NF-kB (Cys allele) (Nematostella vectensis, UniProt E5G601 2-411)
# Sequence: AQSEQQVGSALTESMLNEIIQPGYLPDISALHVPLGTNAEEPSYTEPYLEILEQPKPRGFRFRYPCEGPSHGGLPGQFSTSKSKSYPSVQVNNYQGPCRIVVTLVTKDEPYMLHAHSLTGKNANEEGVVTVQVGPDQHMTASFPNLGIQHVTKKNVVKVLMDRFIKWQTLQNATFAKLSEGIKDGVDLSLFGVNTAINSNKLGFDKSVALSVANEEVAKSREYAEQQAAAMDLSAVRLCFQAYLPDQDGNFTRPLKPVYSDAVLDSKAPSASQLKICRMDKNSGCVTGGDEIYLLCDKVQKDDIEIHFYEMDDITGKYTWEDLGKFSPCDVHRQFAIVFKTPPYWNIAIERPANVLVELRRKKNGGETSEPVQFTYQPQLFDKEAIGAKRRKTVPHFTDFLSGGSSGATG
# assay.name: protein-binding microarray (PBM); PBM: ~300 nM protein, 6 mM HEPES pH 7.8, 80 mM KCl, 0.5 mM EDTA, 0.5 mM EGTA, 6% glycerol, 35 ng/ul poly-dIdC, 1% milk, 1 h, room temperature; Ap Aiptasia and Nv Nematostella (sea anemones) / Co Capsaspora / Aq Amphimedon (sponge) / Dm Drosophila / Hu human; RHD is the Rel homology domain; high values mean tight binding
# assay.conditions: dsDNA, one strand shown
In this scheme, each record receives a class according to its binding signal; the ranges are category 1 = under 5 z-score, category 2 = from 5 z-score up to 8 z-score, category 3 = 8 z-score and over

Place this sequence in its band: "CCGATTAACATCAATAAAACCCCTGATGTTAATCGGGTCTTGATTCGCTTGACGCTGCTG" category 2

Lab log: "CCGATTAACATCAGAATCTCCCCTGATGTTAATCGGGTCTTGATTCGCTTGACGCTGCTG" — assign binding signal category category 2

Consider "CCGATTAACATCAGGGGGAGGAATGATGTTAATCGGGTCTTGATTCGCTTGACGCTGCTG" . To which binding signal class does it belong? category 1

Form: Item = "CCGATTAACATCAAAAAATTCCCTGATGTTAATCGGGTCTTGATTCGCTTGACGCTGCTG" ; Class = ? category 3

Class (by measured binding signal) for "CCGATTAACATCAGGGGTTTCTATGATGTTAATCGGGTCTTGATTCGCTTGACGCTGCTG" category 1

Exercise: read the entry "CCGATTAACATCAAAAGTTCCCCTGATGTTAATCGGGTCTTGATTCGCTTGACGCTGCTG" and state which class it falls under. category 3

Tag the class for "CCGATTAACATCAGGATTATCCCTGATGTTAATCGGGTCTTGATTCGCTTGACGCTGCTG" category 1

Form: Item = "CCGATTAACATCAGGGTTTTCCATGATGTTAATCGGGTCTTGATTCGCTTGACGCTGCTG" ; Class = ? category 1

Classify this sequence: "CCGATTAACATCAAAAAAGTCCCTGATGTTAATCGGGTCTTGATTCGCTTGACGCTGCTG" category 3

Please indicate the class for "CCGATTAACATCACGGGAACACCTGATGTTAATCGGGTCTTGATTCGCTTGACGCTGCTG" based on its binding signal. category 1

Entry "CCGATTAACATCAGAAAGCCCCCTGATGTTAATCGGGTCTTGATTCGCTTGACGCTGCTG" belongs to which category? category 2
